# target_desc: human JAK2 catalytic kinase (JH1) domain (Homo sapiens (Human), UniProt O60674)
# Sequence (O60674 849-1124): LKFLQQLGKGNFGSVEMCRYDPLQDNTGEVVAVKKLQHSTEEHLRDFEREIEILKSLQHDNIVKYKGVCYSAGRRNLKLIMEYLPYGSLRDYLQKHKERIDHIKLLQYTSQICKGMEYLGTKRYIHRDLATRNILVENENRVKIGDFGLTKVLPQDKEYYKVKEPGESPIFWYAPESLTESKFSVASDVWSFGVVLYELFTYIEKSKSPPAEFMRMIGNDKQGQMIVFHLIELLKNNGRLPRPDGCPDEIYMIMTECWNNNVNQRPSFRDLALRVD
# assay_comment: ADP-Glo Kinase Assay, recombinant JAK2 catalytic kinase (JH1) domain
# Format: biochemical
# experimental_conditions: recombinant JH1 domain 0.2 nM, 15 μM ATP, JAK3-974 peptide, mean, read-out: JAK2 biochem IC50 (nM) Mean
measured_endpoint: log10 IC50 (log10 of the value in nM)
// stored as log10 of IC50 expressed in nM

(Q) Give its log10 IC50 value. Item: "Cn1cc(-c2cc3nccc(N4CC5CCC(C4)N5C(=O)[C@@H]4C[C@H]4F)n3n2)cn1"
(A) 2.67

(Q) Give its log10 IC50 value. Item: O=C(C1CC1)N1C2CCC1CN(c1ncnn3cc(-c4cnn(C(F)F)c4)cc13)C2 [Example 144]
(A) 4.00

(Q) Give its log10 IC50 value. Item: "O=C([C@@H]1C[C@H]1F)N1C2CCC1CN(c1ncnc3[nH]c(-c4ccnc(C(F)(F)F)c4)cc13)C2"
(A) 2.55

(Q) Give its log10 IC50 value. Item: O=C(C1CC1(F)F)N1C2CCC1CN(c1ncnn3cc(-c4cnn(C(F)F)c4)cc13)C2 (stereo not shown)
(A) 3.32

(Q) Give its log10 IC50 value. Item: N#C[C@H]1C[C@@H]1C(=O)N1C2CCC1CN(c1ncnn3cc(-c4cnn(C(F)F)c4)cc13)C2 (racemic)
(A) 3.53

(Q) Give its log10 IC50 value. Item: "Cc1cc(-c2nc3c(N4CC5CCC(C4)N5C(=O)[C@@H]4C[C@H]4F)ccnc3[nH]2)ccn1"
(A) 1.15

More entries:
(Q) Give its log10 IC50 value. Item: "CNc1nccc(-c2cc3c(N4CC5CCC(C4)N5C(=O)[C@@H]4C[C@H]4F)ccnn3c2)n1"
(A) 1.99

----------
# IC50 listing for each entry below
# target_desc: human JAK2 catalytic kinase (JH1) domain (Homo sapiens (Human))
# assay_comment: ADP-Glo Kinase Assay, recombinant JAK2 catalytic kinase (JH1) domain
# Format: biochemical
# experimental_conditions: recombinant JH1 domain 0.2 nM, 15 μM ATP, JAK3-974 peptide, mean, read-out: JAK2 biochem IC50 (nM) Mean
Returns: string containing the number followed by the unit.

(Q) Give its IC50 value. Item: "CC(C)n1cc(-c2cc3c(N4CC5CCC(C4)N5C(=O)C4CC4)ncnn3c2)cn1"
(A) 1650 nM

More entries:
(Q) Give its IC50 value. Item: "Cn1cc(-c2cc3c(N4CC5CCC(C4)N5C(=O)[C@@H]4C[C@H]4F)ccnc3[nH]2)c(F)n1"
(A) 4 nM

(Q) Give its IC50 value. Item: "O=C([C@@H]1C[C@H]1F)N1C2CCC1CN(c1ccnc3[nH]c(-c4ccc(C(F)F)nc4)nc13)C2"
(A) 35 nM

(Q) Give its IC50 value. Item: Cn1cc(-c2cc3c(N4CC5CCC(C4)N5C(=O)[C@H]4C[C@@H]4F)ncnn3c2)cn1 (racemic) [Example 61]
(A) 1870 nM

----------
# IC50 listing for each entry below
# target_desc: human JAK3 catalytic kinase (JH1) domain (Homo sapiens (Human))
# Sequence (P52333 822-1111): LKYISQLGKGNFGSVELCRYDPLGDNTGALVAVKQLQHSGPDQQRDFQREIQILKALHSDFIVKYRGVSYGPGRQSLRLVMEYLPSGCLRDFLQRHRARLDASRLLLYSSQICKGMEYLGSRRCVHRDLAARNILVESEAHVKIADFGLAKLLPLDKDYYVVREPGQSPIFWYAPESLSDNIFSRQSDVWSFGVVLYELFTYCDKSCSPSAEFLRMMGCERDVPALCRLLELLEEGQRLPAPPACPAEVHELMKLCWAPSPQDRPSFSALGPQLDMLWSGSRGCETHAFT
# assay_comment: ADP-Glo Kinase Assay, recombinant JAK3 catalytic kinase (JH1) domain
# Assay type: biochemical
# experimental_conditions: recombinant JH1 domain 0.3 nM, 4 μM ATP, JAK3-974 peptide, mean, read-out: JAK3 biochem IC50 (nM) Mean
Please respond with the number in nM and leave the unit unwritten.

Worked examples follow.
(Q) Give its IC50 value. Item: "COc1cc(-c2cc3c(N4CC5CCC(C4)N5C(=O)[C@@H]4C[C@H]4F)ncnc3[nH]2)ccn1"
(A) 877

(Q) Give its IC50 value. Item: COc1cc(-c2cn3ncc(F)c(N4CC5CCC(C4)N5C(=O)[C@@H]4C[C@H]4F)c3n2)ccn1 (stereo in doubt)
(A) 514

(Q) Give its IC50 value. Item: "COc1ccc(-c2cc3c(N4CC5CCC(C4)N5C(=O)[C@@H]4C[C@H]4F)ccnn3c2)cn1"
(A) 684

More entries:
(Q) Give its IC50 value. Item: "Cn1cc(-c2cc3c(N4CC5CCC(C4)N5C(=O)CC#N)ncnn3c2)cn1"
(A) 6830

(Q) Give its IC50 value. Item: "Cc1c(-c2cnn(C)c2)[nH]c2nccc(N3CC4CCC(C3)N4C(=O)[C@@H]3C[C@H]3F)c12"
(A) 2810

(Q) Give its IC50 value. Item: "COc1nn(C)cc1-c1cc2c(N3CC4CCC(C3)N4C(=O)[C@@H]3C[C@H]3F)ccnn2c1"
(A) 588

(Q) Give its IC50 value. Item: O=C(C1CC1)N1C2CCC1CN(c1ncnn3cc(-c4cnn(C(F)F)c4)cc13)C2 [Example 150]
(A) 5620
